Parameter: IC50. Scope: all listed entries.
biological target: recombinant SARS-CoV-2 RBD with C-terminal AviTag (SARS-CoV-2, UniProt P0DTC2 319-541); test: ELISA, competition with coated ACE2-Fc for RBD [Cont. 1]
Answer with a number only, understood to be in nM.

Solved cases (3 shown):
PP1157 MPB-scTRP-PAPA-R2d-A6-H6 (VHH, Form: Trimer) VHH: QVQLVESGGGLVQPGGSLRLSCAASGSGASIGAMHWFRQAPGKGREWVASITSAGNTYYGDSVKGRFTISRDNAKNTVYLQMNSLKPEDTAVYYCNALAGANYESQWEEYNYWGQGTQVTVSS; 4.7
PP1145 MBP-5HVZ-PAPA-R2d-A6-H6 (VHH, Form: Dimer) VHH: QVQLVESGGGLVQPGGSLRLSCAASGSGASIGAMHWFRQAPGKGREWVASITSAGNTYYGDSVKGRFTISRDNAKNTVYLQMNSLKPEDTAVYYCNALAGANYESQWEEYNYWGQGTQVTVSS; 3.8
PP1132 MBP-4B0F-PAPA-R2c-F6-H6 (VHH, Form: Heptamer) VHH: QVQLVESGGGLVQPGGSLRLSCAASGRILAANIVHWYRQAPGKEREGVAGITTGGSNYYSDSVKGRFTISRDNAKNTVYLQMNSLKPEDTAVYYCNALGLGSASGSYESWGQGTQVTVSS; 158

Let's switch to this binder now.
Item under review: PP1133 MBP-4B0F-PAPA-R2d-A6-H6 (VHH, Form: Heptamer) VHH: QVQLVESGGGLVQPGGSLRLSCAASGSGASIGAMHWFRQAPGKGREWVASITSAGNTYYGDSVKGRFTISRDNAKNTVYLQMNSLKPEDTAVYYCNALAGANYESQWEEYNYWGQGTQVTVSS . Reported IC50? 11
